Hello, the source for this data is PubChem BioAssay (NCI), in case you need it.

For each of the molecules below, state its TGI.
Tested on: A498 renal
Assay info: NCI tumour cell line growth inhibition, 48 h

For the molecule OCCCc1cc(O)c2c(c1)C(CO)C(c1ccc(O)c(O)c1)O2 (stereo unspecified) , what TGI is on record?
> 100 µM

Can you look up the measured TGI of CCC12CC(c3ccccc3)C(C(=O)N1)C(=O)N2 (stereo unspecified) for me?
> 100 µM

Name the recorded TGI for CC(C(=O)O)/C(=C\c1ccc2c(c1)OCO2)C(=O)O (stereo unspecified) .
> 100 µM

Recorded TGI of C[C@H](N[C@H]1CCC[C@]1(O)C#Cc1ccc2c(c1)OCO2)c1ccccc1 , please.
> 25 µM

Given CC(C)[Si](OC1=C(C(=O)N(C)c2ccccc2Cl)CCCCC1)(C(C)C)C(C)C , state its recorded TGI.
> 100 µM

Dear colleague, I am looking for the recorded TGI of the following molecule: CCCc1nc(NC#N)nc(C(=O)NC23CC4CC(CC(C4)C2)C3)c1C
> 100 µM
